experimentSummary: NCI Yeast Anticancer Drug Screen. Data for the sgs1 mgt1 strain (AID 161);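 also: 0% = growth of cultures given vehicle only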
testParameters: S. cerevisiae sgs1 mgt1 strain, at 50.0 µM (retest, dose inferred, filed as 5.0), hits give high values
The panel holds about 79,000 compounds, 15% with a hit somewhere; the sample as a whole holds those more often.
For each of the compounds below, state its growth inhibition.
Express the result in % but write the number alone.

[Q] Given ClCc1ccncc1 , state its recorded growth inhibition.
[A] 69

[Q] Given CC/C=C/c1cc2c(cc1O)CCC1C2CC[C@@]2(C)C1CC[C@@H]2O (stereo not given in full) , state its recorded growth inhibition.
[A] 97

[Q] Given CC1=CC2CC(C)=C(CC[C@]3(C)CC[C@H]([C@@H](C)C(=O)O)OO3)C(C)(C)C2CC1 (stereo not given in full) , state its recorded growth inhibition.
[A] 99

[Q] Given Nc1nc(N)c(-c2ccc(Cl)c(Cl)c2)c(CCc2ccc(CNC(=O)c3cccc(S(=O)(=O)F)c3)cc2)n1 , state its recorded growth inhibition.
[A] 99

[Q] Given COc1ccc([As]=[As]c2ccc(OC)c(I)c2)cc1I (stereo not given) , state its recorded growth inhibition.
[A] 100

[Q] Given CN1CCN(c2ccc3nc(-c4ccc5nc(-c6ccc(N(C)CCCl)cc6)[nH]c5c4)[nH]c3c2)CC1 , state its recorded growth inhibition.
[A] 99

[Q] Given C[C@]12CCCC[C@@H]1CC[C@@H]1[C@@H]2C(=O)C[C@@]2(C)[C@H]1CC[C@]2(C)O , state its recorded growth inhibition.
[A] 99

[Q] Given CC[CH2][Pb]([CH2]CC)([CH2]CC)[NH]S(=O)(=O)c1ccc(C)cc1 , state its recorded growth inhibition.
[A] 99

[Q] Given C[PH+](C)C.C[PH+](C)C.[Au] , state its recorded growth inhibition.
[A] 82

[Q] Given N#Cc1cc([N+](=O)[O-])c(Cl)c([N+](=O)[O-])c1Cl , state its recorded growth inhibition.
[A] 98
